// provenance: ChEMBL document CHEMBL1201862

tgt: Cytochrome P450 2D6 (Homo sapiens)
Sequence (P10635 whole entry): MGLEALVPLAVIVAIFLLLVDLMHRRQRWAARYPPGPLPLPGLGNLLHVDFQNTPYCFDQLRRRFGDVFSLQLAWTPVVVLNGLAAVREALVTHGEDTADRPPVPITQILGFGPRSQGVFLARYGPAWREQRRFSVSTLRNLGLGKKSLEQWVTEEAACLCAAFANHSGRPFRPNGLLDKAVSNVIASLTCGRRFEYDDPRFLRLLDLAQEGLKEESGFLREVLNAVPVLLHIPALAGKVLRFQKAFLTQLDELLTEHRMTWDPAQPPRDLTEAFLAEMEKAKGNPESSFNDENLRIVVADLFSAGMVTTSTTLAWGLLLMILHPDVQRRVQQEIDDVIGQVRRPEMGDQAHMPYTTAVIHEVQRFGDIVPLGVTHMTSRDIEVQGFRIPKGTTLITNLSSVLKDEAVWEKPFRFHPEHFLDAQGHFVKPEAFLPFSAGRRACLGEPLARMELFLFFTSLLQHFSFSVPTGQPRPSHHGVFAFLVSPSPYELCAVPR
observedProperty: AC50

Worked examples, 5 compounds total:
1. Cc1c(CCO)c(=O)n(-c2ccccc2)n1S(=O)(=O)c1c(Cl)cc(Cl)cc1Cl
7.94 µM (inconclusive)
2. O=C(c1cccc(F)c1)N1CCC2(CCCN(Cc3ccccc3)C2)CC1
10 µM (inconclusive)
3. Cc1cccc(CNc2ncnc3ccc(-c4ccc(C(=O)N(C)C)cc4)cc23)c1
25.1 µM (inconclusive)
4. c1ccc(Nc2nc(-c3ccoc3)nc3ccccc23)cc1
39.8 µM (inconclusive)
5. COC(=O)Cn1c(=N)n(CCN2CCCCC2)c2ccccc21
44.7 µM (inconclusive)

For every item below, please supply its AC50.
1. CN(C)C(=O)c1ccc(-c2cncnc2-n2ccnc2)cc1
2. O=C(OC(C(=O)O)C(OC(=O)c1ccccc1)C(=O)NCc1ccccc1)c1ccccc1 (stereo unspecified)
3. Cc1cccc(NC(S)=NC2CC3CCCC(C2)N3Cc2cccs2)c1 (stereo unspecified)
4. Cc1ccc(NC(=O)Cn2cnc3c(cnn3C(C)(C)C)c2=O)cc1
5. CCc1ccc(C(C(=O)NCc2ccc(OC)cc2)N(CCOC)C(=O)Cc2cccs2)cc1 (stereo unspecified)
6. C[C@@]12C=CC(=O)C=C1CC[C@@H]1C2=CC[C@]2(C)[C@@H]1CC[C@H]2C(=O)CN1CCN(c2cc(N3CCCC3)nc(N3CCCC3)n2)CC1
7. O=C(Nc1cccc(F)c1)N1CCC2(CCNCC2)CC1
8. COC(=O)C1CC1C(NC(=O)[C@@H]1CCCN1)c1ccccc1 (stereo partly specified)

Response given:
25.1 µM (inconclusive)
20 µM (inconclusive)
3.98 µM (inconclusive)
14.1 µM (inconclusive)
25.1 µM (inconclusive)
25.1 µM (inconclusive)
12.6 µM (inconclusive)
20 µM (inconclusive)
